The following variants are shown together with reported abundance fitness values.
B1: POU domain, class 3, transcription factor 4, residues 280 to 335; numbered along this chain, P49335 (parent)
chain: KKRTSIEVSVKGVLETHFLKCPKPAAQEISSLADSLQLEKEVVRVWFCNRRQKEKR

# Variants of: B1
# assay.comment: abundance fitness (aPCA) (normalised: wild type 0, dead -1); higher = more abundant; growth selection in yeast, the domain comes from the species named
# assay.context: Homo sapiens

Worked cases, abundance fitness given:
- residue.change: "R44M"
  property.measured: "abundance fitness"
  result: -0.539
- residue.change: "K11S"
  property.measured: "abundance fitness"
  result: -0.498
- residue.change: "R51M"
  property.measured: "abundance fitness"
  result: -0.243
- residue.change: "S35T"
  property.measured: "abundance fitness"
  result: -0.01
- residue.change: "F47K"
  property.measured: "abundance fitness"
  result: -1.16

Task item: Fill in the blank: the reported abundance fitness of D34Q is ____.
Reply: -0.183

Task item: Please give the result for T16Q too.
Reply: 0.044

Task item: Please give the result for A33P too.
Reply: -0.907

Task item: Please give the result for Q52N too.
Reply: 0.273

Task item: Please give the result for K23W too.
Reply: 0.037

Task item: Please give the result for L32W too.
Reply: -0.614

Task item: Please give the result for E54F too.
Reply: -0.836

Task item: Please give the result for F47D too.
Reply: -0.565
